Target: bovine thrombin (Bos taurus, UniProt P00735)
Construct: A bovine thrombin solution (50 ul; 0.2 pmol; Sigma); purchased Sigma
Assay: Fibrin clot inhibition assay
Type: biochemical
Parameters: unit not given here
Details: bovine thrombin 0.2 pmol, 10 minute incubation at 24° C., 1:10 diluted human plasma, turbidity (A405); two-fold delay of fibrin clot present at 15 minutes in the control well
Recorded metric: Fibrin Clot Inhibition
Note: the reply should be a number with no unit written.

Recorded result, `CC[C@H](C)[C@H](NC(=O)[C@@H]1CCCN1C(=O)[C@H](CCC(=O)O)NC(=O)[C@H](Cc1ccc(O)cc1)NC(=O)CCC(=O)O)C(=O)N1Cc2ccccc2C[C@H]1C(=O)N[C@@H](CCC(=O)O)C(=O)N[C@@H](CCC(=O)O)C(=O)N[C@@H](C)C(=O)N[C@@H](CC1CCCCC1)C(=O)N[C@H](CCC(=O)O)C(=O)O` , Fibrin Clot Inhibition: 0.63

###

Target: bovine thrombin (Bos taurus, UniProt P00735)
Construct: A bovine thrombin solution (50 ul; 0.2 pmol; Sigma); purchased Sigma
Test: Fibrin clot inhibition assay
Type: biochemical
Parameters: unit not given here
Details: bovine thrombin 0.2 pmol, 10 minute incubation at 24° C., 1:10 diluted human plasma, turbidity (A405); two-fold delay of fibrin clot present at 15 minutes in the control well
Fibrin Clot Inhibition: recorded values

Take a look at these entries with their results.
CC[C@H](C)[C@H](NC(=O)[C@@H]1Cc2ccccc2CN1C(=O)[C@H](CCC(=O)O)NC(=O)[C@H](Cc1ccc(O)cc1)NC(=O)CCC(=O)O)C(=O)N1CCC[C@H]1C(=O)N[C@@H](CCC(=O)O)C(=O)N[C@@H](CCC(=O)O)C(=O)N[C@@H](C)C(=O)N[C@@H](CC1CCCCC1)C(=O)N[C@H](CCC(=O)O)C(=O)O [Example 5] ... 0.82
CC[C@H](C)[C@H](NC(=O)[C@@H]1CCCN1C(=O)[C@H](CCC(=O)O)NC(=O)[C@H](Cc1ccc(O)cc1)NC(=O)CCC(=O)O)C(=O)N1CCCC[C@H]1C(=O)N[C@@H](CCC(=O)O)C(=O)N[C@@H](CCC(=O)O)C(=O)N[C@@H](C)C(=O)N[C@@H](CC1CCCCC1)C(=O)N[C@H](CCC(=O)O)C(=O)O [Example 1] ... 0.88

Attention now turns to another entry.
For this compound ( CC[C@H](C)[C@H](NC(=O)[C@@H]1CCCCN1C(=O)[C@H](CCC(=O)O)NC(=O)[C@H](Cc1ccc(O)cc1)NC(=O)CCC(=O)O)C(=O)N1CCC[C@H]1C(=O)N[C@@H](CCC(=O)O)C(=O)N[C@@H](CCC(=O)O)C(=O)N[C@@H](C)C(=O)N[C@@H](CC1CCCCC1)C(=O)N[C@H](CCC(=O)O)C(=O)O [Example 2] ), measured Fibrin Clot Inhibition is 1.9
